Tested on: pigweed (Amaranthus retroflexus)
Assay: Test E pre-/postemergence plant response
Format: in vivo
Conditions: post-emergence, 31 g ai/ha, Postemergence, scale 0 to 100, read-out: Plant response rating, Pigweed
Each entry below carries its reported pest or weed control at 31 g/ha.
assay.metric: pest or weed control at 31 g/ha (%)

* Fc1cccc(Oc2ncc(Br)cn2)c1-c1cc(C(F)F)no1 [Compound 145] | 100
* FC(F)(F)c1cc(-c2ccccc2Oc2ncc(Cl)cn2)no1 [Compound 200] | 90
* FC(F)c1cc(-c2ccccc2Oc2ncc(Cl)cn2)on1 [Compound 53] | 85
* FC(F)c1cc(-c2ccccc2Oc2ncc(Cl)cn2)no1 [Compound 35] | 90

Data provenance: patent US10131652B2
